Target: T1, APBA1_2, Q02410
T1 sequence (Q02410 742-832, limits assumed, looked up): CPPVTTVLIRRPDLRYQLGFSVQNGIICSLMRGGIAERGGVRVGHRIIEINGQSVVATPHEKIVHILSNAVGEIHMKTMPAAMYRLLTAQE
Assay: holdup assay
Set-up: key: below the threshold = too weak to quantify, mostly under pKd 3.1 to 4
Details: plain residues with an end cap or a label only (N-terminal biotin on a linker: ttds)
Reported pKd is given for each of the following binders.
value-kind: pKd

| binder | value-kind | value-measured |
| --- | --- | --- |
| DPRNTQTSQI [ABRAXAS2, Q15018] | pKd | 3.71 |
| RTRQRNETQV [HPV51-E6, P26554] | pKd | 3.56 |
| LCALPKVTTV [AGMAT, Q9BSE5] | pKd | 3.86 |
